SUBJECT_OF_TEST: CYP3A (Homo sapiens, UniProt P08684+P20815+P24462+Q9HB55)
ASSAY_METHOD_TEXT: Inhibition of CYP3A-mediated 1'-OH midazolam formation in human liver microsomes preincubated for 15 mins before substrate addition by LC-MS method
Type: ADME
CONDITION_SUMMARY: probe midazolam (1'-OH midazolam formation)
MEASURED_PROPERTY: IC50 (nM)
Supply the numeric figure in nM, leaving out any unit text.

Item: C=CC[C@@H]1/C=C(\C)C[C@H](C)C[C@H](OC)[C@H]2O[C@@](O)(C(=O)C(=O)N3CCCC[C@H]3C(=O)O[C@H](/C(C)=C/[C@@H]3CC[C@@H](O)[C@H](OC)C3)[C@H](C)[C@@H](O)CC1=O)[C@H](C)C[C@@H]2OC [TACROLIMUS ANHYDROUS] | IC50: 740

Cited source: ChEMBL document CHEMBL3526092
